Test system: Venturia inaequalis
Assay: Venturia test (apple)/protective
Assay type: in vivo
Details: 240 h, protective, application rate 100 g/ha, evaluation 10 days after inoculation, read-out: Efficacy in %
pest or weed control at 100 g/ha by entry:
ASSAY READOUT: pest or weed control at 100 g/ha (%)

O=C(Nc1ccccc1-c1ccc(Br)c(F)c1)c1ccsc1I [drawing 192]	100
O=C(Nc1ccccc1-c1ccc(Cl)c(Cl)c1)c1ccsc1Br [drawing 218]	100
CC(C[Si](C)(C)C)c1ccccc1NC(=O)c1ccsc1I (centres unmarked) [drawing 207]	100
CC(C[Si](C)(C)C)c1ccccc1NC(=O)c1ccoc1I (centres unmarked) [drawing 206]	99
O=C(Nc1ccccc1-c1ccc(C(F)(F)F)cc1Cl)c1ccsc1I [drawing 189]	97
CC(CC(C)(C)C)c1ccccc1NC(=O)c1ccsc1I (centres unmarked) [drawing 187]	100
O=C(Nc1ccccc1-c1ccc(Cl)cc1)c1ccoc1I [drawing 198]	100
O=C(Nc1ccccc1-c1ccc(Cl)c(Cl)c1)c1ccoc1I [drawing 200]	99
C[Si](C)(C)CCc1sccc1NC(=O)c1ccsc1I [drawing 221]	100
CC(C)CC(C)c1ccccc1NC(=O)c1ccsc1I (centres unmarked) [drawing 185]	100
CC(CC(C)(C)C)c1ccccc1NC(=O)c1ccoc1I (centres unmarked) [drawing 186]	94
O=C(Nc1ccccc1-c1ccc(Cl)cc1)c1ccsc1I [drawing 202]	100
CO/N=C/c1ccc(-c2ccccc2NC(=O)c2ccsc2I)cc1F [drawing 213]	100
Cc1ccc(-c2ccccc2NC(=O)c2ccsc2I)cc1F [drawing 210]	100
O=C(Nc1ccccc1-c1ccc(Br)cc1Cl)c1ccsc1I [drawing 191]	100
O=C(Nc1ccccc1-c1cccc(Cl)c1Cl)c1ccsc1I [drawing 194]	98
O=C(Nc1ccccc1-c1ccc(Cl)c(Cl)c1)c1ccsc1I [drawing 204]	100
CC(C)CC(C)c1ccccc1NC(=O)c1ccsc1Br (centres unmarked) [drawing 215]	100
O=C(Nc1ccccc1-c1ccc(Br)cc1)c1ccoc1I [drawing 199]	100
O=C(Nc1ccccc1-c1ccc(Br)cc1)c1ccsc1I [drawing 203]	91

====

Test: logP determination by HPLC on a reverse-phase column (EEC Directive 79/831 Annex V.A8)
Type: physicochemical
Conditions: pH 2.3, reverse-phase column (C 18), 43° C.
compounds and their reported logP
ASSAY READOUT: logP

C[Si](C)(C)CCc1ccccc1NC(=O)c1ccsc1I	4.43
O=C(Nc1ccccc1-c1cccc(Cl)c1Cl)c1ccsc1I	4.01
C=C(CC(C)C)c1ccccc1NC(=O)c1ccsc1I	4.57
O=C(Nc1ccccc1-c1ccc(Cl)c(F)c1)c1ccsc1I	3.82
O=C(Nc1ccccc1-c1ccc(Br)c(Cl)c1)c1ccsc1I	4.21
CC(C)(C)CCc1ccccc1NC(=O)c1ccsc1I	4.17
CC(C)CC(C)c1sccc1NC(=O)c1ccsc1I (stereo not shown)	4.22
CON=Cc1ccc(-c2ccccc2NC(=O)c2ccsc2I)cc1F	3.79
CC(CC(C)(C)C)c1ccccc1NC(=O)c1ccsc1Br (stereo not shown)	4.51
Cc1ccc(-c2ccccc2NC(=O)c2ccsc2I)cc1F	3.89
CC(C)CC(C)c1ccccc1NC(=O)c1ccsc1Br (stereo not shown)	4.24
CC(C[Si](C)(C)C)c1cc(F)ccc1NC(=O)c1ccsc1I (stereo not shown)	4.67
O=C(Nc1ccc(F)cc1-c1cccc(Cl)c1F)c1ccsc1I	3.69
O=C(Nc1ccccc1-c1ccc(Cl)cc1)c1ccsc1Br	3.99
O=C(Nc1ccc(F)cc1-c1ccc(Cl)c(Cl)c1)c1ccsc1I	4.13
O=C(Nc1ccccc1-c1cccc(Cl)c1F)c1ccsc1I	3.67

====

Tested on: Sphaerotheca fuliginea
Test: Sphaerotheca test (cucumber)/protective
Format: in vivo
Conditions: Podosphaera fuliginea, 168 h, protective, application rate 100 g/ha, evaluation 7 days after inoculation, read-out: Efficacy in %
ASSAY READOUT: pest or weed control at 100 g/ha (%)

O=C(Nc1ccccc1-c1ccc(C(F)(F)F)cc1Cl)c1ccsc1I [drawing 155]	100
O=C(Nc1ccccc1-c1ccc(Cl)c(F)c1)c1ccsc1I [drawing 170]	98
CC(C[Si](C)(C)C)c1ccccc1NC(=O)c1ccoc1I (centres unmarked) [drawing 171]	100
O=C(Nc1ccccc1-c1ccc(C(F)(F)F)cc1)c1ccsc1I [drawing 172]	93
O=C(Nc1ccccc1-c1ccc(Cl)c(Cl)c1)c1ccoc1I [drawing 166]	100
CC(C)(C)CCc1cc(F)ccc1NC(=O)c1ccsc1I [drawing 163]	100
O=C(Nc1ccccc1-c1ccc(Cl)c(F)c1)c1ccsc1Br [drawing 182]	100
O=C(Nc1ccccc1-c1ccc(F)c(Cl)c1)c1ccsc1I [drawing 183]	100
CO/N=C/c1ccc(-c2ccccc2NC(=O)c2ccsc2I)cc1F [drawing 176]	98
O=C(Nc1ccccc1-c1ccc(Cl)cc1)c1ccoc1I [drawing 164]	100
CC(C)CC(C)c1ccccc1NC(=O)c1ccsc1Br (centres unmarked) [drawing 178]	100
O=C(Nc1ccccc1-c1ccc(Br)c(Cl)c1)c1ccsc1I [drawing 159]	100
O=C(Nc1ccccc1-c1ccc(Cl)c(F)c1)c1ccoc1I [drawing 167]	98
O=C(Nc1ccccc1-c1ccc(Cl)cc1)c1ccsc1I [drawing 168]	95
O=C(Nc1ccccc1-c1ccc(Cl)c(Cl)c1)c1ccsc1Br [drawing 181]	100
Cc1ccc(-c2ccccc2NC(=O)c2ccsc2I)cc1F [drawing 174]	100
O=C(Nc1ccccc1-c1cccc(Cl)c1F)c1ccsc1I [drawing 161]	100
CC(C)CC(C)c1ccccc1NC(=O)c1ccsc1I (centres unmarked) [drawing 152]	98
CC(C)CC(C)c1sccc1NC(=O)c1ccsc1I (centres unmarked) [drawing 177]	92
CC(C)CC(C)c1cc(F)ccc1NC(=O)c1ccsc1I (centres unmarked) [drawing 175]	97

====

Test system: Venturia inaequalis
Test: Venturia test (apple)/protective
Type: in vivo
Conditions: 240 h, protective, application rate 100 g/ha, evaluation 10 days after inoculation, read-out: Efficacy in %
ASSAY READOUT: pest or weed control at 100 g/ha (%)

O=C(Nc1ccccc1-c1ccc(Cl)cc1)c1ccsc1Br [drawing 217]	100
CC(CC(C)(C)C)c1ccccc1NC(=O)c1ccsc1Br (centres unmarked) [drawing 216]	98
CC(C)(C)CCc1cc(F)ccc1NC(=O)c1ccsc1I [drawing 197]	100
CC(C)CC(C)c1cc(F)ccc1NC(=O)c1ccsc1I (centres unmarked) [drawing 212]	100
O=C(Nc1ccccc1-c1ccc(Br)c(Cl)c1)c1ccsc1I [drawing 193]	100
C[Si](C)(C)CCc1ccccc1NC(=O)c1ccsc1I [drawing 188]	100
O=C(Nc1ccncc1-c1ccc(Cl)c(Cl)c1)c1ccsc1I [drawing 190]	98
CC1CC(C)(C)c2cccc(NC(=O)c3ccsc3I)c21 (centres unmarked) [drawing 211]	100
O=C(Nc1ccc(F)cc1-c1cccc(Cl)c1F)c1ccsc1I [drawing 196]	100
O=C(Nc1ccccc1-c1cccc(Cl)c1F)c1ccsc1I [drawing 195]	89
CC(C)CC(C)c1sccc1NC(=O)c1ccsc1I (centres unmarked) [drawing 214]	100
O=C(Nc1ccccc1-c1ccc(F)c(Cl)c1)c1ccsc1I [drawing 220]	100
O=C(Nc1ccccc1-c1ccc(Cl)c(F)c1)c1ccsc1I [drawing 205]	100
O=C(Nc1ccccc1-c1ccc(C(F)(F)F)cc1)c1ccsc1I [drawing 208]	99
O=C(Nc1ccccc1-c1ccc(Cl)c(F)c1)c1ccsc1Br [drawing 219]	100
O=C(Nc1ccc(F)cc1-c1ccc(Cl)c(Cl)c1)c1ccsc1I [drawing 209]	100
O=C(Nc1ccccc1-c1ccc(Cl)c(F)c1)c1ccoc1I [drawing 201]	100

====

System: Sphaerotheca fuliginea
Assay: Sphaerotheca test (cucumber)/protective
Assay type: in vivo
Settings: Podosphaera fuliginea, 168 h, protective, application rate 100 g/ha, evaluation 7 days after inoculation, read-out: Efficacy in %
Parameter: pest or weed control at 100 g/ha. Scope: all listed entries.
ASSAY READOUT: pest or weed control at 100 g/ha (%)

CC(CC(C)(C)C)c1ccccc1NC(=O)c1ccsc1Br (stereo not shown) [drawing 179]	97
O=C(Nc1ccccc1-c1ccc(Br)cc1)c1ccoc1I [drawing 165]	100
O=C(Nc1ccc(F)cc1-c1ccc(Cl)c(Cl)c1)c1ccsc1I [drawing 173]	100
CC(CC(C)(C)C)c1ccccc1NC(=O)c1ccoc1I (stereo not shown) [drawing 153]	98
O=C(Nc1ccccc1-c1ccc(Br)cc1Cl)c1ccsc1I [drawing 157]	100
O=C(Nc1ccccc1-c1ccc(Cl)cc1)c1ccsc1Br [drawing 180]	100
CC(CC(C)(C)C)c1ccccc1NC(=O)c1ccsc1I (stereo not shown) [drawing 154]	100
O=C(Nc1ccccc1-c1cccc(Cl)c1Cl)c1ccsc1I [drawing 160]	100
O=C(Nc1ccncc1-c1ccc(Cl)c(Cl)c1)c1ccsc1I [drawing 156]	100
O=C(Nc1ccc(F)cc1-c1cccc(Cl)c1F)c1ccsc1I [drawing 162]	100

====

Experiment: logP determination by HPLC on a reverse-phase column (EEC Directive 79/831 Annex V.A8)
Assay type: physicochemical
Settings: pH 2.3, reverse-phase column (C 18), 43° C.
ASSAY READOUT: logP

O=C(Nc1ccccc1-c1ccc(C(F)(F)F)cc1Cl)c1ccsc1I [Example 19]	4.18
CC(C)(C)CCc1ccccc1NC(=O)c1ccsc1Br [Example 45]	4.30
C=C(CC(C)(C)C)c1ccccc1NC(=O)c1ccoc1I [Example 15]	4.49
CC1CC(C)(C)c2cccc(NC(=O)c3ccsc3I)c21 (centres unmarked) [Example 39]	4.09
CC(C)(C)CCc1cc(F)ccc1NC(=O)c1ccsc1Br [Example 44]	4.30
